target: hNK2 receptor (Homo sapiens, UniProt P21452); construct: host or cells: CHO cells; assay: Radioligand receptor binding inhibitory activity using membrane fraction of hNK2 receptor-expressing CHO cell ([125I]-NKA); details: test compound 10^−7 M
Sequence (P21452 whole entry): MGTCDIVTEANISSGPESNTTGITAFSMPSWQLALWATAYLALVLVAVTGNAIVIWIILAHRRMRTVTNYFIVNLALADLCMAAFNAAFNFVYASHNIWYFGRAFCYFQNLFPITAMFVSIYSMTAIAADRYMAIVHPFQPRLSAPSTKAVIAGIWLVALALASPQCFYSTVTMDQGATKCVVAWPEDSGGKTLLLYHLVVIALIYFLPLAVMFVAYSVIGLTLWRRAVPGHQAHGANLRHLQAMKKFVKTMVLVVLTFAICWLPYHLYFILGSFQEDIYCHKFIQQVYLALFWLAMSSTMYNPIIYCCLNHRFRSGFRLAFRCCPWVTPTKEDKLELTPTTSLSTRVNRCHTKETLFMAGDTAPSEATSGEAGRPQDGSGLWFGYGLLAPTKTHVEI
Would you mind telling me the reported hNK2 receptor binding inhibitory activity (inhibitory rate (%)) of each entry?
Report the value in % with no unit label.

*Q* Observed hNK2 receptor binding inhibitory activity (inhibitory rate (%)) on hNK2 receptor (Homo sapiens, UniProt P21452) for `Cc1ccn(-c2ccc(C(=O)N[C@@H]3CCC(F)(F)C[C@@H]3C(=O)N3CCc4c(-c5ccsc5)nc5ccccc5c43)cc2)n1.Cl` , please.
*A* 100.2

*Q* Observed hNK2 receptor binding inhibitory activity (inhibitory rate (%)) on hNK2 receptor (Homo sapiens, UniProt P21452) for `Cc1ccn(-c2ccc(C(=O)N[C@@H]3CCC(F)(F)C[C@@H]3C(=O)N3CCc4c(-c5ccccc5)nc5ccc(F)cc5c43)cc2)n1.Cl` , please.
*A* 99.5

*Q* Observed hNK2 receptor binding inhibitory activity (inhibitory rate (%)) on hNK2 receptor (Homo sapiens, UniProt P21452) for `Br.Cc1ccn(-c2ccc(C(=O)N[C@@H]3CCC(F)(F)C[C@@H]3C(=O)N3CCc4c(-c5ncc[nH]5)nc5ccccc5c43)cc2)n1` , please.
*A* 99.7

*Q* Observed hNK2 receptor binding inhibitory activity (inhibitory rate (%)) on hNK2 receptor (Homo sapiens, UniProt P21452) for `Cc1ccn(-c2ccc(C(=O)N[C@@H]3CCC(F)(F)C[C@@H]3C(=O)N3CCc4c(-c5ncc[nH]5)nc5ccc(F)cc5c43)cc2)n1` , please.
*A* 99.8

*Q* Observed hNK2 receptor binding inhibitory activity (inhibitory rate (%)) on hNK2 receptor (Homo sapiens, UniProt P21452) for `Cc1ccn(-c2ccc(C(=O)N[C@@H]3CCC(F)(F)C[C@@H]3C(=O)N3CCc4c(-c5ncc[nH]5)nc5ccccc5c43)cc2)n1` , please.
*A* 100.5

*Q* Observed hNK2 receptor binding inhibitory activity (inhibitory rate (%)) on hNK2 receptor (Homo sapiens, UniProt P21452) for `Cc1ccn(-c2ccc(C(=O)N[C@@H]3CCC(F)(F)C[C@@H]3C(=O)N3CCc4c(-c5ncc[nH]5)nc5ccccc5c43)cc2)n1.Cl` , please.
*A* 101.4

====

molecular target: hNK2 receptor (Homo sapiens); construct: host or cells: CHO cells; assay: Radioligand receptor binding inhibitory activity using membrane fraction of hNK2 receptor-expressing CHO cell ([125I]-NKA); conditions: test compound 10^−8 M; read-out: hNK2 receptor binding inhibitory activity (inhibitory rate (%))
Structures can show the parent of a compound that is named as a salt.
Would you mind telling me the reported inhibition at 0.01 µM of each entry?
Report the value in % with no unit label.

*Q* Please give the measured inhibition at 0.01 µM for this molecule: Cc1ccn(-c2ccc(C(=O)N[C@@H]3CCC(F)(F)C[C@@H]3C(=O)N3CCc4c(-c5ncc[nH]5)nc5ccc(F)cc5c43)cc2)n1 [Example 6, hydrochloride]
*A* 96.1

*Q* Please give the measured inhibition at 0.01 µM for this molecule: `Cc1ccn(-c2ccc(C(=O)N[C@@H]3CCC(F)(F)C[C@@H]3C(=O)N3CCc4c(-c5ccsc5)nc5ccccc5c43)cc2)n1`
*A* 98.8

*Q* Please give the measured inhibition at 0.01 µM for this molecule: `Cc1ccn(-c2ccc(C(=O)N[C@@H]3CCC(F)(F)C[C@@H]3C(=O)N3CCc4c(-c5nccn5COC(=O)C(C)(C)C)nc5ccccc5c43)cc2)n1`
*A* -7.5

*Q* Please give the measured inhibition at 0.01 µM for this molecule: Cc1ccn(-c2ccc(C(=O)N[C@@H]3CCC(F)(F)C[C@@H]3C(=O)N3CCc4c(-c5ncc[nH]5)nc5ccccc5c43)cc2)n1.Cl [Example 12, hydrochloride]
*A* 99.8

*Q* Please give the measured inhibition at 0.01 µM for this molecule: `Cc1ccn(-c2ccc(C(=O)N[C@@H]3CCC(F)(F)C[C@@H]3C(=O)N3CCc4c(-c5ccccc5)nc5ccc(F)cc5c43)cc2)n1`
*A* 93.8

====

Would you mind telling me the reported inhibition at 10 µM of each entry?
Biological target: hNK3 receptor (Homo sapiens, UniProt P29371)
Construct: expressed in transfected cells; host or cells: CHO cells
Sequence (P29371 1-465): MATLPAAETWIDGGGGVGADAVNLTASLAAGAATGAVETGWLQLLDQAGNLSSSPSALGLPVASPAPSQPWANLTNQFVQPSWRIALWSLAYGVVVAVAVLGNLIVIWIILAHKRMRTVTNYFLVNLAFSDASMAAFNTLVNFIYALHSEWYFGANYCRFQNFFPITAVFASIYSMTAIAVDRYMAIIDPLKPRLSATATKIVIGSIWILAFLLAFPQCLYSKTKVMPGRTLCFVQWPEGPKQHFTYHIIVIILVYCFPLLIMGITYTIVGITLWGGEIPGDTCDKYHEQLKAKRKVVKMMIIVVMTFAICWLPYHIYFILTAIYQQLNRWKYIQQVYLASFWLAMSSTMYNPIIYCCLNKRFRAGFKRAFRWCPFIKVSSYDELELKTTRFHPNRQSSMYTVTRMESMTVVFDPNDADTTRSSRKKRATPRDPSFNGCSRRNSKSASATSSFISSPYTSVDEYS
Assay: Radioligand receptor binding inhibitory activity using membrane fraction of hNK3 receptor-expressing CHO cell ([125I]-NKB)
Conditions: test compound 10^−5 M; read-out: hNK3 receptor binding inhibitory activity (inhibitory rate (%))
Please answer using a numeric value trailed by its unit.

*Q* Please give the measured inhibition at 10 µM for this molecule: `Cc1ccn(-c2ccc(C(=O)N[C@@H]3CCC(F)(F)C[C@@H]3C(=O)N3CCc4c(-c5ncc[nH]5)nc5ccccc5c43)cc2)n1`
*A* 28.4%

*Q* Please give the measured inhibition at 10 µM for this molecule: `Cc1ccn(-c2ccc(C(=O)N[C@@H]3CCC(F)(F)C[C@@H]3C(=O)N3CCc4c(-c5ncc[nH]5)nc5ccc(F)cc5c43)cc2)n1`
*A* 15.2%

*Q* Please give the measured inhibition at 10 µM for this molecule: `Cc1ccn(-c2ccc(C(=O)N[C@@H]3CCC(F)(F)C[C@@H]3C(=O)N3CCc4c(-c5ccccc5)nc5ccc(F)cc5c43)cc2)n1`
*A* 53.1%

*Q* Please give the measured inhibition at 10 µM for this molecule: `Cc1ccn(-c2ccc(C(=O)N[C@@H]3CCC(F)(F)C[C@@H]3C(=O)N3CCc4c(-c5nccn5COC(=O)C(C)(C)C)nc5ccccc5c43)cc2)n1`
*A* -7.9%

*Q* Please give the measured inhibition at 10 µM for this molecule: `Cc1ccn(-c2ccc(C(=O)N[C@@H]3CCC(F)(F)C[C@@H]3C(=O)N3CCc4c(-c5ccsc5)nc5ccccc5c43)cc2)n1`
*A* 35.6%

====

biological target: hNK2 receptor (Homo sapiens, UniProt P21452); construct: host or cells: CHO cells; assay: Antagonistic activity determined by intracellular calcium concentration using neurokinin A and hNK2 receptor-expressing CHO cell (FLIPR); assay type: cell-based; settings: CHO, test compound 10^−7 M; neurokinin A stimulation; read-out: Antagonistic activity (inhibitory rate (%))
ASSAY ENDPOINT: inhibition at 0.1 µM (%)
Report the value in % with no unit label.

*Q* Please give the measured inhibition at 0.1 µM for this molecule: `Cc1ccn(-c2ccc(C(=O)N[C@@H]3CCC(F)(F)C[C@@H]3C(=O)N3CCc4c(-c5nccn5COC(=O)C(C)(C)C)nc5ccccc5c43)cc2)n1`
*A* 39.5

*Q* Please give the measured inhibition at 0.1 µM for this molecule: `Cc1ccn(-c2ccc(C(=O)N[C@@H]3CCC(F)(F)C[C@@H]3C(=O)N3CCc4c(-c5ccccc5)nc5ccc(F)cc5c43)cc2)n1`
*A* 100

*Q* Please give the measured inhibition at 0.1 µM for this molecule: `Cc1ccn(-c2ccc(C(=O)N[C@@H]3CCC(F)(F)C[C@@H]3C(=O)N3CCc4c(-c5ccsc5)nc5ccccc5c43)cc2)n1`
*A* 100

*Q* Please give the measured inhibition at 0.1 µM for this molecule: `Cc1ccn(-c2ccc(C(=O)N[C@@H]3CCC(F)(F)C[C@@H]3C(=O)N3CCc4c(-c5ncc[nH]5)nc5ccc(F)cc5c43)cc2)n1`
*A* 102

*Q* Please give the measured inhibition at 0.1 µM for this molecule: `Cc1ccn(-c2ccc(C(=O)N[C@@H]3CCC(F)(F)C[C@@H]3C(=O)N3CCc4c(-c5ncc[nH]5)nc5ccccc5c43)cc2)n1`
*A* 102

====

target: hNK2 receptor (Homo sapiens); construct: host or cells: CHO cells; assay: Radioligand receptor binding inhibitory activity using membrane fraction of hNK2 receptor-expressing CHO cell ([125I]-NKA); conditions: test compound 10^−8 M
Would you mind telling me the reported hNK2 receptor binding inhibitory activity (inhibitory rate (%)) of each entry?
Report the value in % with no unit label.

*Q* Observed hNK2 receptor binding inhibitory activity (inhibitory rate (%)) on hNK2 receptor (Homo sapiens) for Cc1ccn(-c2ccc(C(=O)N[C@@H]3CCC(F)(F)C[C@@H]3C(=O)N3CCc4c(-c5ncc[nH]5)nc5ccccc5c43)cc2)n1 [Example 1] , please.
*A* 99.7

*Q* Observed hNK2 receptor binding inhibitory activity (inhibitory rate (%)) on hNK2 receptor (Homo sapiens) for Cc1ccn(-c2ccc(C(=O)N[C@@H]3CCC(F)(F)C[C@@H]3C(=O)N3CCc4c(-c5ccsc5)nc5ccccc5c43)cc2)n1.Cl [Example 8] , please.
*A* 98.5

*Q* Observed hNK2 receptor binding inhibitory activity (inhibitory rate (%)) on hNK2 receptor (Homo sapiens) for Cc1ccn(-c2ccc(C(=O)N[C@@H]3CCC(F)(F)C[C@@H]3C(=O)N3CCc4c(-c5ncc[nH]5)nc5ccc(F)cc5c43)cc2)n1 [Example 5] , please.
*A* 96.6

*Q* Observed hNK2 receptor binding inhibitory activity (inhibitory rate (%)) on hNK2 receptor (Homo sapiens) for Cc1ccn(-c2ccc(C(=O)N[C@@H]3CCC(F)(F)C[C@@H]3C(=O)N3CCc4c(-c5ccccc5)nc5ccc(F)cc5c43)cc2)n1.Cl [Example 10] , please.
*A* 92.8

*Q* Observed hNK2 receptor binding inhibitory activity (inhibitory rate (%)) on hNK2 receptor (Homo sapiens) for Br.Cc1ccn(-c2ccc(C(=O)N[C@@H]3CCC(F)(F)C[C@@H]3C(=O)N3CCc4c(-c5ncc[nH]5)nc5ccccc5c43)cc2)n1 [Example 2] , please.
*A* 99.6
